- System: T-47D breast
- ASSAY DETAILS: NCI tumour cell line growth inhibition, 48 h
RESULT TYPE: GI50

                                    molecule  value_observed
 0  C=C1CCC2C3(C)COC(c4ccccc4Br)OC3CCC2(C)C1C/C=C1/C(=O)OCC1OC(C)=O (centres undefined)         1.08 µM
 1  CCCCCCCOc1c(OC)cc(C2CC(=O)Nc3c2c(C)nn3-c2nc3ccccc3[nH]2)cc1OC (centres undefined)         3.95 µM
 2  N=C(N)c1ccc(COc2ccccc2OCc2ccc(C(=N)N)cc2)cc1         58.4 µM
 3  CC(C)C[C@H](NC(=O)[C@@H](O)[C@H](N)Cc1ccc([N+](=O)[O-])cc1)C(=O)O         > 25 µM
 4  COc1ccc2c(c1)C(C)Cc1c(Cl)nc(C)nc1N2C (centres undefined)         3.43 µM
 5  CC1(C)CC[C@]2(C(=O)N3CCOCC3)CC[C@]3(C)C(=CC[C@@H]4[C@@]5(C)C/C(=C/c6ccncc6)C(=O)C(C)(C)[C@@H]5CC[C@]43C)[C@@H]2C1        0.781 µM
 6  O=C(c1cccnc1)c1cc(-c2ccccn2)c(=O)n2ccccc12        > 100 µM
 7               Nc1ccc(-c2ccc(N)cc2I)c(I)c1         18.5 µM
 8  C/C=C/[C@@H]1OC(=O)C2=C[C@@H](O)[C@@H](/C=C/C)O[C@H]21          3.3 µM
 9  O=C(CN1CCN(c2ccccc2)CC1)N1CCN(c2nnc(-c3ccc(Cl)cc3)c(-c3ccc(Cl)cc3)n2)CC1         3.51 µM
10  CCOc1ccccc1/C=N\N=C(\N)N/N=C/c1ccccc1OCC         3.73 µM
11  O=C(CN(/C=C/C(=O)C(F)(F)F)c1ccccc1)c1ccc(Cl)c(Cl)c1         15.8 µM
12  CC(C)N1C(NNC(=O)c2cnccn2)=NS(=O)(=O)c2ccccc21        > 100 µM
13      O=C(OCCBr)c1ccc(Cl)c([N+](=O)[O-])c1         2.29 µM
